Assay: chemical genetic growth profiling, strain panel (AID 1159580);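 note: tested at 20 µM; growth read once vehicle control cultures reached saturation at 30 °C; 1 = growth at the plate median or of vehicle wells; lower values mean less growth of the strain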
Conditions: S. cerevisiae deletion strains, growth OD, locus YOR231W, strain MKK1, stronger effect = lower value
The whole screen tested about 5,500 compounds, of which about 2,000 (36%) were called active. About 18% were inconclusive and are not listed. This is one part of the list.
Reported normalized growth values for a set of molecules
# output: bare number, no unit

Solved entries (count: 2):
1) O[C@H]1[C@H](O)[C@@H](O)C2OC[C@H]1O2 : 0.98
2) Cn1c(=O)c2c(ncn2CCO)n(C)c1=O : 0.981

As a next step, examine the molecule that follows.
QUERY: Would you kindly share the measured normalized growth for O=C(O)[C@H]1/C(=C/CO)O[C@@H]2CC(=O)N21 ?
RESULT: 0.987

###

Experiment: chemical genetic growth profiling, strain panel (AID 1159580);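 note: tested at 20 µM; growth read once vehicle control cultures reached saturation at 30 °C; 1 = growth at the plate median or of vehicle wells; lower values mean less growth of the strain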
Conditions: S. cerevisiae deletion strains, growth OD, locus YNL067W, strain RPL9B, stronger effect = lower value
Among all 5,500 compounds or so, about 2,000 (36%) were called active. Roughly 18% stayed inconclusive and do not appear here. This is one part of the list.
ENDPOINT_LABEL: normalized growth
# respond with the number and nothing more

// known answers, use as guide
1. COc1cc(O)ccc1C(C)=O : 0.981
2. O=C(CCc1ccc(O)cc1)c1c(O)cc(O)cc1O : 0.994
3. NC(Cc1ccc(Cl)cc1)C(=O)O (stereo unspecified) : 0.986
4. C[N+]1(C)CCCC(OC(=O)C(O)(c2ccccc2)c2ccccc2)C1 (stereo unspecified) : 0.997
5. CCCN(CCC)c1c([N+](=O)[O-])cc(C(F)(F)F)cc1[N+](=O)[O-] : 1.01

Could you now consider this next compound?
QUERY: Tell me the measured normalized growth of C[C@H]1C(=O)CCC2[C@]3(C)CC[C@@]4(C)C5CC(C)(C)CC[C@]5(C)CC[C@]4(C)C3CC[C@@]21C (stereo partly specified) , please.
RESULT: 1.02

###

Experiment: chemical genetic growth profiling, strain panel (AID 1159580);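 note: tested at 20 µM; growth read once vehicle control cultures reached saturation at 30 °C; 1 = growth at the plate median or of vehicle wells; lower values mean less growth of the strain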
Conditions: S. cerevisiae deletion strains, growth OD, locus YPL241C, strain CIN2, stronger effect = lower value
About 2,000 (36%) of roughly 5,500 compounds were called active. Roughly 18% stayed inconclusive and do not appear here. This is one part of the list.
ENDPOINT_LABEL: normalized growth

1) Cc1cccc(NC(=O)c2ccccc2)c1 : 0.91 (inactive)
2) Cc1ccc(O)c(C(CCN(C(C)C)C(C)C)c2ccccc2)c1 (stereo unspecified) : 1.01 (inactive)
3) NC(=O)C1=C(O)C(=O)N(C2CCCCC2)C1 : 0.974 (inactive)
4) CCCC(=O)Nc1ccc(OCC(O)CNC(C)C)c(C(C)=O)c1 (stereo unspecified) : 1.01 (inactive)
5) COc1ccccc1N1CC(C)(C)C(=O)N(C(=O)c2c(F)cccc2Cl)C1=S : 1.01 (inactive)
6) ClC1C(Cl)C(Cl)C(Cl)C(Cl)C1Cl (stereo unspecified) : 0.961 (inactive)
7) CC(C)[C@@H]1CC[C@@H](C)CC1=O : 1.01 (inactive)
8) O[C@H]1[C@H](O)[C@@H](O)C2OC[C@H]1O2 : 0.983 (inactive)

QUERY: Requested field: normalized growth. Item: CCOC(=O)c1ccc(N2CCOCC2)c(N=Cc2cc(Cl)ccc2O)c1
RESULT: 0.908 (inactive)
